system: SW-620 colon; assay: NCI-60 one-dose screen, 48 h; details: 10 µM
Compounds without any hit were thinned out: in the full panel of roughly 83,000, 20% have a hit. Calls of active or inactive are those of the source. How the source made its calls: active means growth percent below 10; inactive means the rest.
Outcomes: active, inactive

Compound | Category
c1ccc(CP(Cc2ccccc2)c2ccccc2)cc1 | inactive
Cc1ccc(Nc2cc(C)nc(NCCCNc3ccnc4cc(Cl)ccc34)n2)cc1 | active
COc1ccc(-c2nc3sccn3c2-c2nc3c([nH]2)C(=O)c2ccccc2C3=O)cc1 | inactive
COc1ccc(-c2nc3ncccn3c2-c2nnc(-c3ccc(F)cc3)o2)cc1 | inactive
CCCCCCN1CCN(Cc2ccc(N(CC)CC)cc2)C(=O)C1=O | inactive
Cc1cc(Cl)nc(N(CCCNc2ccnc3cc(Cl)ccc23)Cc2cccs2)n1 | inactive
CC(C)C[C@H](NC(=O)[C@H](Cc1cccc2ccccc12)NS(=O)(=O)c1cccc2cccnc12)B(O)O | active
ClC(Cl)(Cl)c1nc2nccnc2[nH]1 | inactive
CC/C(=C(/c1ccc(OCCN(C)C)cc1)c1ccc(OC(=O)CCCCC(=O)c2c(C)[nH]c(/C=C3\N=C(c4ccc[nH]4)C=C3OC)c2C)cc1)c1ccccc1 | inactive
O=C(Nc1ccc(CN2CCc3nc4cc(O)c(O)cc4cc32)cc1)c1ccc(Cl)c(Cl)c1 | inactive
CCCCN(CCCC)CCCCCCCCC(O)c1cc2ccccc2c2ccccc12 (stereo unspecified) | inactive
CCc1ccc2c(c1)N(CCO)C1=C(C(=O)OC1)C2c1ccccc1 (stereo unspecified) | inactive
CCCCN(CCCC)c1cc(C(=O)CCCCCN)c2ccccc2n1 | inactive
CC[C@H](C)C(=O)O[C@H]1CCC=C2C=C[C@H](C)C(CCC3C[C@@H](O)CC(=O)O3)[C@H]21 (stereo partly specified) | inactive
O=C(N/N=C/c1cc2ccccc2c2ccccc12)c1cc(O)c(O)c(O)c1 | inactive
CN(CCc1ccccn1)c1ccccc1 | inactive
CC(C)(Cl)CCC1=C(Cl)C(=O)c2ccccc2C1=O | active
COc1ccc(-c2nc3ccccn3c2-c2nnc(-c3cc(OC)c(OC)c(OC)c3)o2)cc1 | inactive
O=[N+]([O-])c1ccc(N/N=C/c2cccc3ccccc23)nc1 | inactive
O=C1ON=[N+](c2ccc(Cc3ccc([N+]4=NOC(=O)C4CN4CCOCC4)cc3)cc2)C1CN1CCOCC1 (stereo unspecified) | inactive
COc1ccc2c(c1)N(CCO)C1=C(C(=O)OC1)C2c1ccccc1 (stereo unspecified) | inactive
